Experimental System: T1, human GFRα3 expressed with a C-terminal myc-myc-hexahistidine tag (human, UniProt O60609 32-374, biotinylated (sites not given) in ELISA format 2 and in the Octet cross-competition; not in SPR)
T1 construct: also called hGFRα3-mmh; hGFRα3-mmH
T1 sequence (O60609 other isoform, or with tags, fused parts or gaps limits assumed): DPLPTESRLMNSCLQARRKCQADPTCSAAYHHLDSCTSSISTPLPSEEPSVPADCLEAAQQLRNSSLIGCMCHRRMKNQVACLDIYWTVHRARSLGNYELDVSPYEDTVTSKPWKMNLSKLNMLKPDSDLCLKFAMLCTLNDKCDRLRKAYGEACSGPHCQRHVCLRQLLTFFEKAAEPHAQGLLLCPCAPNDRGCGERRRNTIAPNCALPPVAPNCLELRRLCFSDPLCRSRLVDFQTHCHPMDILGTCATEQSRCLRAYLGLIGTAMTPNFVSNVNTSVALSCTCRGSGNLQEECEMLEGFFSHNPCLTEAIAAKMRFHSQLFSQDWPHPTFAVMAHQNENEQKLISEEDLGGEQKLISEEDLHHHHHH
Test Details: SPR, Ab captured, 25C
Text: […]
Result Type: kon (M⁻¹ s⁻¹)
Numbers only, in M⁻¹ s⁻¹.

Illustrative cases are given below, each with its answer.
| Binder | Obs Value |
| --- | --- |
| H4H2364S (antibody, human IgG4, V domains shown, human IgG4 Fc (H4H)) VH: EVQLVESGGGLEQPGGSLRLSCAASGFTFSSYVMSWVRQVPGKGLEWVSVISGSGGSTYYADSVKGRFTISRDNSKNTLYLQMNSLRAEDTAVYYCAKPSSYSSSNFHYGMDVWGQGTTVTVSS VL: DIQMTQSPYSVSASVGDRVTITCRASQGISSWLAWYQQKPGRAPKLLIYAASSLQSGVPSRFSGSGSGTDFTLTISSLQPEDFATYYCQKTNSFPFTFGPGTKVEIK | 353000 |
| H4H2295S (antibody, human IgG4, V domains shown, human IgG4 Fc (H4H)) VH: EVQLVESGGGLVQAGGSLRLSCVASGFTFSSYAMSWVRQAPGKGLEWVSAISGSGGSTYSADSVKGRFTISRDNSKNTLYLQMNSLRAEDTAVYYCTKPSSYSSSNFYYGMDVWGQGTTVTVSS VL: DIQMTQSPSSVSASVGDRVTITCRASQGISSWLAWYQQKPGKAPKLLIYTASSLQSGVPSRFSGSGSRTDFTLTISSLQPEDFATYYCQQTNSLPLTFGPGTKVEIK | 475000 |
| H4H2236N3 (antibody, human IgG4, V domains shown, human IgG4 Fc (H4H)) VH: EVQLLESGGNLVQPGGSLRLSCAASGFTFSSYAMTWVRQAPGKGLEWVSTISGSGTSTYYADSVKGRFTISRDNSRDTVFLQMNSLRAEDTAVYYCSKPSALRFLHWLAMDVWGQGTLVTVSS VL: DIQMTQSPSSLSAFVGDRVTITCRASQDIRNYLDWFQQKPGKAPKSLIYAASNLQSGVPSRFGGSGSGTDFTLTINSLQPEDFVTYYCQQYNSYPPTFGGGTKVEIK | 922000 |
| H4H2294S (antibody, human IgG4, V domains shown, human IgG4 Fc (H4H)) VH: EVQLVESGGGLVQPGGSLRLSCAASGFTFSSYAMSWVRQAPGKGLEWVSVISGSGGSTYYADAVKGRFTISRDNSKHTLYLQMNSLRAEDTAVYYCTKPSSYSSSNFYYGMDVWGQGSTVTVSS VL: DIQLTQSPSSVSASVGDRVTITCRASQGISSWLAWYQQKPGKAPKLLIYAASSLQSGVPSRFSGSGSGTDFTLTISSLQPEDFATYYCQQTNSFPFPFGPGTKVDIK | 563000 |

Here is the next item to consider.
Qu. // query kon value for entry H4H2346S (antibody, human IgG4, V domains shown, human IgG4 Fc (H4H)) VH: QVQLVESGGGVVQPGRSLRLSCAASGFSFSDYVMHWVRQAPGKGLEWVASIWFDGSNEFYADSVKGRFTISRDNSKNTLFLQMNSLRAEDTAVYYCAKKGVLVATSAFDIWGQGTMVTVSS VL: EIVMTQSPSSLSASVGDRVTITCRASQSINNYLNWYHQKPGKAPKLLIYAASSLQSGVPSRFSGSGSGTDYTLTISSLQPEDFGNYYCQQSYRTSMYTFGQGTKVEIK
Ans. 186000
